# subject.of.test: FhCL2 (Fasciola hepatica, UniProt Q7JNQ8)
# Sequence (Q7JNQ8 entry or part of it): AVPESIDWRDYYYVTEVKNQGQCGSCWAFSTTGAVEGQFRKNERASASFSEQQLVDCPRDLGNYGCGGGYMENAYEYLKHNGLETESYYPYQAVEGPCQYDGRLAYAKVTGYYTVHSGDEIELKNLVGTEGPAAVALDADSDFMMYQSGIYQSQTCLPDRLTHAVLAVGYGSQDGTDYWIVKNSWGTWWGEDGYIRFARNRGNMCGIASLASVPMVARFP
# assay.details: Inactivation of recombinant FhCL2 by inhibitors (progress curves in presence of substrate)
# Assay type: biochemical
# measurement.parameters: read-out: Ki(app)
attribute.measured: pKi
FYI, pKi means -log10 of a concentration in mol per litre.

>  <smiles>
CC(C)C[C@H](NC(=O)OCc1ccccc1)C(=O)NNC(=O)NNC(=O)[C@H](CC(C)C)NC(=O)[C@H](Cc1ccccc1)NC(=O)OC(C)(C)C

>  <pKi>
8.32

$$$$

### Prompt Which pKi is reported for this compound? C[C@H](NC(=O)[C@H](Cc1ccccc1)NC(=O)OCc1ccccc1)C(=O)C=[N+]=[N-]
### Response 7.26
